# Tested on: Plasmodium falciparum NF54
# Assay procedure: growth inhibition relative to untreated control; higher = more inhibition
# Experimental context: 5 µM; MM + chorismate end-products (CM screening medium); 72 h
Measured quantity: growth inhibition

Worked cases, growth inhibition given:
- CNCCC(Oc1ccc(C(F)(F)F)cc1)c1ccccc1 (stereo unspecified): < 0%
- NCCN(C(=O)c1ccc(Cl)cc1Cl)c1ccc(OCc2ccc(Cl)cc2)cc1: 97.9%
- O=C(Nc1ccccc1-c1nc2c(C(=O)O)cccc2o1)c1ccccc1: < 0%
- CS(=O)(=O)N1CCC(CCn2nc(Cc3cccc4ccccc34)c3c(N)ncnc32)CC1: 41.3%
- CCCn1c(NC(=O)c2ccc3ccccc3n2)nc2ccccc21: 86.1%

Plasmodium falciparum NF54 assay, compound O=C(NCCN1CCCC1)c1cc(NCCCCN2CCC(F)(F)CC2)nc2ccc(Cl)cc12 , recorded growth inhibition = 90.7%

----------
# System: Plasmodium falciparum NF54
# Assay procedure: growth inhibition relative to untreated control; higher = more inhibition
# Experimental context: 5 µM; MM + chorismate end-products (CM screening medium); 72 h
In this section we review reported growth inhibition values for a set of compounds.
Express the result in % but write the number alone.

Example results:
• Cn1ncc2c(N3CCOCC3)nc(NCCc3c[nH]c4ccccc34)nc21 = 10.8
• COc1ccc(C2=NN(C3CCCCCC3)C(=O)C2(C)C)cc1OCCCCOc1ccc(-c2nn[nH]n2)cc1 = 47.2
• Cc1cc(NC(=O)c2ccc(S(=O)(=O)N(Cc3ccccc3)C(C)C)cc2)no1 = 99.8
• CNC(=O)c1cc(S(=O)(=O)N2CCN(c3ccccn3)CC2)cs1 = 90.2
• CC1COC2(CCN(c3nc(=O)c4cc(C(F)(F)F)cc([N+](=O)[O-])c4s3)CC2)O1 (configuration not stated) = 14.7

For reference, reported growth inhibition for Cc1nn(C(=O)Nc2cccc(C(F)(F)F)c2)c(C)c1Sc1ncccn1 stands at 80.1

// recorded growth inhibition for CCN(CC)CCCCCCNc1cc(OC)cc2c(C)ccnc12 : 81.2

----------
# Tested on: Plasmodium falciparum NF54
# Assay procedure: growth inhibition relative to untreated control; higher = more inhibition
# Experimental context: 1 µM; minimal medium (MM); 72 h
Measured quantity: growth inhibition

* Nc1ncnc2c1ncn2[C@@H]1O[C@H](COS(=O)(=O)NC(=O)c2ccccc2O)[C@@H](O)[C@H]1O | < 0%
* Cc1cc(O)nc(-n2nc(C)cc2C)n1 | < 0%
* CS(=O)(=O)Cc1nc2ccccc2oc1=O | < 0%

Quick note, growth inhibition for CNc1snc(C)c1C(=O)NCCOc1ccc(OC)cc1 landed at < 0%

get_value(item= O=C(Nc1ccc(N2CCNCC2)nc1)c1oc(-c2ccccc2)nc1C(F)(F)F , readout=growth inhibition) returns > 100%

----------
Documented growth inhibition across a set of compounds
# Tested on: Plasmodium falciparum NF54
# Assay procedure: growth inhibition relative to untreated control; higher = more inhibition
# Experimental context: 1 µM; MM + chorismate end-products (CM screening medium); 72 h
Entry rule: numbers only, all in %.

Below, each entry is followed by its recorded growth inhibition result.
- O=C(Nc1nnc(-c2ccc(Cl)s2)o1)c1ccc(Cl)s1: 34.8
- C[C@@H]1[C@H](O)[C@@H](C)/C=C/C=C/C=C/C=C/C=C/C=C/C=C/[C@H](O[C@@H]2O[C@H](C)[C@@H](O)[C@H](N)[C@@H]2O)C[C@@H]2O[C@](O)(C[C@@H](O)C[C@@H](O)[C@H](O)CC[C@@H](O)C[C@@H](O)CC(=O)O[C@H]1C)C[C@H](O)[C@H]2C(=O)O: 86.2
- Cc1cc(NCC(C)C)c2[nH]nc(-c3ccccc3)c2n1: 89.6

// below: growth inhibition requested for another compound
Memo: Nc1nccc2ccc(Oc3ccncc3)cc12 , reported growth inhibition: 73.9

----------
The entries below come with measured growth inhibition values attached.
# Tested on: Plasmodium falciparum NF54
# Assay procedure: growth inhibition relative to untreated control; higher = more inhibition
# Experimental context: 5 µM; MM + chorismate end-products (CM screening medium); 72 h
Dear colleague, please return just the value in %, with no unit written.

Check out these entries, answers already filled in.
- O=C(NCc1cc(Cl)cc(Cl)c1)c1c(C(F)(F)F)nc2ccccn12: 31.8
- O=C(C1CCN(c2cc(-n3cccc3)ncn2)CC1)N1CCc2ccccc2C1: 4.91
- Clc1ccc(Cl)c(CO[C@H]2CCCC[C@@H]2n2ccnc2)c1: 67.1
- Cc1cc(OCC(=O)NCc2ccccc2)c2cc(Br)ccc2n1: 56.5
- COc1ccc(S(=O)(=O)Nc2ccc(CN3CCN(C(=O)c4cccc(C#N)c4)CC3)cc2)cc1: 41.6
- CNc1cc(C)nc(C2CN(C(=O)c3n[nH]c4ccccc34)CCO2)c1 (stereo unspecified): 41.7
- COc1cc(NC(C)CCCN)c2ncccc2c1 (stereo unspecified): 64.3
- Cc1ccc(NC(=O)c2cc(S(=O)(=O)NC(C)(C)C)ccc2C)nc1: 93
- Cc1cccc(NC(=O)c2cc(S(=O)(=O)N(C)c3ccc(F)cc3)ccc2Cl)n1: 87.9
- COc1cc(-c2cc(-c3ccc(S(C)(=O)=O)cc3)cnc2N)ccc1O: 96.8

// recorded growth inhibition for O=C(Nc1nc(-c2ccccn2)cs1)C1CC1c1ccccc1F (stereo unspecified) : 54.3

Kindly note the recorded growth inhibition for FC(F)(F)c1cc(NCCc2ccccc2)nc(-c2ccccn2)n1 , which is 0.0785

----------
growth inhibition values by entry
# Test system: Plasmodium falciparum NF54
# Assay procedure: growth inhibition relative to untreated control; higher = more inhibition
# Experimental context: 5 µM; MM + chorismate end-products (CM screening medium); 72 h
Answer in %, number only, no unit symbol.

Please review the entries below; each comes with its answer.
• COc1ccc(-c2cncc3ccc(C(=O)NCCCn4ccnc4)nc23)cc1 = 84.4
• COc1ccc(Cn2cnc3c(-c4ccco4)nc(Cl)nc32)cc1 = 48.9
• Cc1cc(C)c2cc(C(=O)NC3CCCCCCC3)[nH]c2c1 = 55.4
• CC(C)(C)n1nc(-c2ccccc2)c2c(N)ncnc21 = 38.5
• c1ccc(-c2[nH]c3ccccc3c2C(c2ccccn2)N2CCCC2)cc1 (stereo not given) = 43.6
• c1ccc2c(c1)CN(CC1CC1)CC1(CCN(Cc3c[nH]c4cnccc34)CC1)O2 = 93.1

Lab entry: Plasmodium falciparum NF54 assay, compound Cc1nn(C)cc1C(C)Nc1nncc(-c2ccc(C(F)(F)F)cc2)n1 (stereo not given) , growth inhibition = 99.9

// growth inhibition (Plasmodium falciparum NF54) for O=C(Nc1cnc2ccccc2c1)c1cccc(-n2cnnn2)c1 = 86.9

Test item CCc1nc2ccc(Cl)cn2c1C(=O)NCc1ccc(N2CCC(c3ccc(OC(F)(F)F)cc3)CC2)cc1 ; Plasmodium falciparum NF54; reported growth inhibition was 91

The recorded growth inhibition with Plasmodium falciparum NF54 for COc1cncc(-c2cncc(N3CCN(c4ccncc4)CC3)n2)c1 was 97.4

Sample OCCc1ccc(Nc2nccc(-c3nnc4ccccn34)n2)cc1 , system: Plasmodium falciparum NF54. Its growth inhibition is 65.5

Tested on Plasmodium falciparum NF54, the item O=C(NC1CCN(c2ccnc3ccccc23)C1)c1cccc(C(F)(F)F)c1 (stereo not given) showed growth inhibition equal to 96.9

Fill in: Plasmodium falciparum NF54 growth inhibition for CC(C)n1nc(-c2cc3c(Cl)cccc3[nH]2)c2c(N)ncnc21 = 57.9

# lookup: CC(Oc1ccccc1)C(=O)Nc1nc(-c2ccccn2)cs1 (stereo not given) on Plasmodium falciparum NF54, growth inhibition = 68.6

----------
# Test system: Plasmodium falciparum NF54
# Assay procedure: growth inhibition relative to untreated control; higher = more inhibition
# Experimental context: 5 µM; MM + chorismate end-products (CM screening medium); 72 h
Measured quantity: growth inhibition (%)
Kindly provide the numeric value in % only, without the unit symbol.

Field: example entries. Status: answers known.
• O=C1Nc2ccc(Br)cc2C12NCCc1c2[nH]c2ccccc12 (stereo not given) = 95.9
• CCCCN(CCCC)c1c(C#N)cc(S(=O)(=O)Nc2ccccc2)cc1C#N = 39.9
• Cc1c[nH]c(CCNC(=O)c2cc(-c3ccc(Cl)cc3)cs2)n1 = 97.3
• COc1cc(Br)cc2cc(C(=O)Nc3cccc(C(F)(F)F)c3)c(=O)oc12 = 21.7

Next molecule, please.
// growth inhibition value for Cc1cc(C(=O)Nc2cnn(Cc3ccc(Cl)cc3Cl)c2)no1 : 88.6

----------
growth inhibition by entry:
# Tested on: Plasmodium falciparum NF54
# Assay procedure: growth inhibition relative to untreated control; higher = more inhibition
# Experimental context: 1 µM; minimal medium (MM); 72 h

Consider the reported growth inhibition for these compounds:
* COc1cc(C2=NCCN2)cc2cc(-c3ccc(C4=NCCN4)cc3)oc12 | > 100%
* Cc1nc(-c2ccccn2)nc(NCCc2ccc(S(C)(=O)=O)cc2)c1Cl | < 0%
* CCOC(=O)c1c(NC(=O)c2c(F)c(F)c(F)c(F)c2F)sc(C(N)=O)c1C | < 0%

The reported growth inhibition of the compound CCCn1nnc(NC(=O)COc2ccc(C3CCCCC3)cc2)n1 was < 0%

Noted for NC(=O)c1cc(Br)ccc1OCCOc1ccccc1 : its growth inhibition reads < 0%

Record summary for N=C(N)Nc1ccc(-c2ccc(-c3ccc(N=C(N)N)c(Cl)c3)o2)cc1Cl : reported growth inhibition = > 100%
